# EXPERIMENTAL SYSTEM: Human recombinant MMP-2 (Homo sapiens)
# Construct: made in house; host or cells: MMP-2-transfected p2AHT2 cells
# Sequence (P08253 110-660): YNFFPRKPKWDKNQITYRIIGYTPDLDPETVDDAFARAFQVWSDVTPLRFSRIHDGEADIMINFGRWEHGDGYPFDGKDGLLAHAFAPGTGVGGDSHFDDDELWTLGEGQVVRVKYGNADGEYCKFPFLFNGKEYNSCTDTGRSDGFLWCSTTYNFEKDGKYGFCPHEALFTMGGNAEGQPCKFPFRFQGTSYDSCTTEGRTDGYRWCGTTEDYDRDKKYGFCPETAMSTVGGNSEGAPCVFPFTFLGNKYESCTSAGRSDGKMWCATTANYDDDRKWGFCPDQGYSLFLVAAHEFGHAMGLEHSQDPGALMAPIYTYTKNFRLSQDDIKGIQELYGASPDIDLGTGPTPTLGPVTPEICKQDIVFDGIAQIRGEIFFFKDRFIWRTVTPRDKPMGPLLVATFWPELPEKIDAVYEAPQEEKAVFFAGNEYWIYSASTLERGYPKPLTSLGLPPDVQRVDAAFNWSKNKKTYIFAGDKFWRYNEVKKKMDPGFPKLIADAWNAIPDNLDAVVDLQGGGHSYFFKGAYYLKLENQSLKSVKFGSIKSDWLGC
# RUN DESCRIPTION: In vitro MMP inhibition, IC50 determination (fluorogenic substrate I)
# Format: biochemical
# MEASUREMENT SETUP: value outside parentheses (Ki in parenthesis)
pIC50: −log10 of the molar value.
EXPERIMENTAL ENDPOINT: pIC50

* CC(C)(C)C1CCN(S(=O)(=O)CCCOc2ccc(S(=O)(=O)C3(C(=O)NO)CCOCC3)cc2)CC1 [Example 310] | 7.49
* O=C(NO)C1(S(=O)(=O)c2ccc(OCCCOc3ccc(F)cc3F)cc2)CCOCC1 [Example 445] | 8.66
* O=C(NCCCOc1ccc(S(=O)(=O)C2(C(=O)NO)CCOCC2)cc1)c1ccc([N+](=O)[O-])cc1 [Example 369] | 6.81
* COc1cc2c(cc1OC)CN(CCCCOc1ccc(S(=O)(=O)C3(C(=O)NO)CCOCC3)cc1)CC2 [Example 338] | 7.69
* O=C(NCCCOc1ccc(S(=O)(=O)C2(C(=O)NO)CCOCC2)cc1)c1cnc(Cl)c(Cl)c1 [Example 384] | 6.75
* COc1ccc(/C(C)=C/CCCOc2ccc(S(=O)(=O)C3(C(=O)NO)CCOCC3)cc2)c(OC)c1 [Example 345] | 6.57
* CC(CCc1ccccc1)Oc1ccc(S(=O)(=O)C2(C(=O)NO)CCOCC2)cc1 (centres unmarked) [Example 467] | 6.03
* O=C(NO)C1(S(=O)(=O)c2ccc(OCCCOc3cccc(C(F)(F)F)c3)cc2)CCN(C2CC2)CC1 [Example 443] | 7.60
